Test system: 782815-120-R-J1-PDC complex spheroid viability;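 further: spheroids exposed to compounds for 7 days before reading; 100% = DMSO vehicle control viability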
protocolNotes: Anticancer human tumor 782815-120-R-J1-PDC patient-derived colon adenocarcinoma cell line growth inhibition [RAS]
protocolConditions: second compound 3.16 µM; first compound 0.1 µM; active compounds read low
metric: viability, T/C

Notebook: pull reported viability, T/C for 782815-120-R-J1-PDC complex spheroid viability, entry Cc1nc(N2CCC3(CC2)COC(C)C3N)c(CO)nc1Sc1ccnc(N)c1Cl (centres undefined) + C#Cc1c(F)ccc2cc(O)cc(-c3ncc4c(N5CC6CCC(C5)N6)nc(OCC56CCCN5CC(F)C6)nc4c3F)c12
96.8%

Notebook: pull reported viability, T/C for 782815-120-R-J1-PDC complex spheroid viability, entry CC(C)NCC(C(=O)N1CCN(c2ncnc3c2C(C)CC3O)CC1)c1ccc(Cl)cc1 (centres undefined) + C#Cc1c(F)ccc2cc(O)cc(-c3ncc4c(N5CC6CCC(C5)N6)nc(OCC56CCCN5CC(F)C6)nc4c3F)c12
101%

Notebook: pull reported viability, T/C for 782815-120-R-J1-PDC complex spheroid viability, entry CC(=O)OC12COC1CC(O)C1(C)C(=O)C(O)C3=C(C)C(OC(=O)C(O)C(NC(=O)OC(C)(C)C)c4ccccc4)CC(O)(C(OC(=O)c4ccccc4)C21)C3(C)C (centres undefined) + C#Cc1c(F)ccc2cc(O)cc(-c3ncc4c(N5CC6CCC(C5)N6)nc(OCC56CCCN5CC(F)C6)nc4c3F)c12
34.4%

Notebook: pull reported viability, T/C for 782815-120-R-J1-PDC complex spheroid viability, entry C=CC(=O)N1CCN(c2nc(OCC3CCCN3C)nc3c(F)c(-c4nc(N)cc(C)c4C(F)(F)F)c(Cl)cc23)C(C)C1 (centres undefined) + C#Cc1c(F)ccc2cc(O)cc(-c3ncc4c(N5CC6CCC(C5)N6)nc(OCC56CCCN5CC(F)C6)nc4c3F)c12
105%

Notebook: pull reported viability, T/C for 782815-120-R-J1-PDC complex spheroid viability, entry C[C@@H](NC(=O)c1ncnc(N)c1Cl)c1ncc(C(=O)Nc2cc(C(F)(F)F)c(Cl)cn2)s1 + C#Cc1c(F)ccc2cc(O)cc(-c3ncc4c(N5CC6CCC(C5)N6)nc(OCC56CCCN5CC(F)C6)nc4c3F)c12
101%

Notebook: pull reported viability, T/C for 782815-120-R-J1-PDC complex spheroid viability, entry Nc1ccn(C2OC(CO)C(O)C2(F)F)c(=O)n1 (centres undefined) + C#Cc1c(F)ccc2cc(O)cc(-c3ncc4c(N5CC6CCC(C5)N6)nc(OCC56CCCN5CC(F)C6)nc4c3F)c12
49%

Notebook: pull reported viability, T/C for 782815-120-R-J1-PDC complex spheroid viability, entry NC1c2ccccc2OC12CCN(c1cnc3c(N4CCCc5ncccc54)n[nH]c3n1)CC2 (centres undefined) + C#Cc1c(F)ccc2cc(O)cc(-c3ncc4c(N5CC6CCC(C5)N6)nc(OCC56CCCN5CC(F)C6)nc4c3F)c12
97.1%

Notebook: pull reported viability, T/C for 782815-120-R-J1-PDC complex spheroid viability, entry CC(Nc1ccc2c(c1)OCCn1cc(N3C(=O)OCC3C(F)F)nc1-2)C(N)=O (centres undefined) + C#Cc1c(F)ccc2cc(O)cc(-c3ncc4c(N5CC6CCC(C5)N6)nc(OCC56CCCN5CC(F)C6)nc4c3F)c12
92.4%

Notebook: pull reported viability, T/C for 782815-120-R-J1-PDC complex spheroid viability, entry O=C(c1ccc(F)c(F)c1Nc1ccc(I)cc1F)N1CC(O)([C@@H]2CCCCN2)C1 + C#Cc1c(F)ccc2cc(O)cc(-c3ncc4c(N5CC6CCC(C5)N6)nc(OCC56CCCN5CC(F)C6)nc4c3F)c12
40.7%

# credit: PubChem BioAssay AID2060887
